- Method Notes: MTT dye reduction viability test, HaCaT
- Format: cell-based, human
- Conditions Used: human, HaCaT cells (immortal keratinocytes), 72 h exposure, MTT, mean ± SD; read-out: Cytotoxic activity IC50, HaCaT
- Procedure: We have chosen two types of cell culture lines: human prostate cancer cells (PC3) and normal human immortal keratinocyte cells (HaCaT) (Table 1). […] To assess the cells growth inhibition, the MTT dye reduction test was preformed based on the method described by Präbst et al.. […] The optical density was measured with an UVM 340 (ASYS Hitech GmbH, Austria) microplate reader at 570 nm. Replicates of three wells for each dosage, including vehicle control, were analyzed for each experiment. […]
Outcome Measure: IC50 at 72 h (µM)

INSERT INTO results (molecule, outcome_measure, rel, value_measured) VALUES
  ('O=C1CC(c2ccccc2)Oc2ccc(O)cc21 (centres unmarked) [6-Hydroxy-Flavanone, 6-hydroxy-flavanone, reference compound]', 'IC50 at 72 h', '>', 100),
  ('CCCCCCCCCCCCCCCCCC(=O)Oc1ccc2c(=O)cc(-c3ccccc3)oc2c1 [7-Stearic-Flavone, 7-hydroxy-flavone stearic ester]', 'IC50 at 72 h', '=', 45.6),
  ('CC=CC=CC(=O)Oc1ccc2c(=O)cc(-c3ccccc3)oc2c1 [7-Sorbic-Flavone, 7-hydroxy-flavone sorbic ester]', 'IC50 at 72 h', '=', 50.8),
  ('CCCCCC=CCC=CCCCCCCCC(=O)Oc1ccc2c(=O)cc(-c3ccccc3)oc2c1 [7-Linoleic-Flavone, 7-hydroxy-flavone linoleic ester]', 'IC50 at 72 h', '=', 65),
  ('CCCCCCCCC=CCCCCCCCC(=O)Oc1ccc2c(=O)cc(-c3ccccc3)oc2c1 [7-Oleic-Flavone, 7-hydroxy-flavone oleic ester]', 'IC50 at 72 h', '=', 44.9);
